target: NMDAR2A (Homo sapiens); construct: expressed in transfected cells; host or cells: HEK cells (membrane extract); test: [3H]MK-801 binding in NMDAR2A expressing HEK cell membranes; assay type: biochemical; conditions: 50 μM glutamate, read-out: B: log EC50 (converted)
Sequence (Q12879 23-1464, species assumed, other chains not shown): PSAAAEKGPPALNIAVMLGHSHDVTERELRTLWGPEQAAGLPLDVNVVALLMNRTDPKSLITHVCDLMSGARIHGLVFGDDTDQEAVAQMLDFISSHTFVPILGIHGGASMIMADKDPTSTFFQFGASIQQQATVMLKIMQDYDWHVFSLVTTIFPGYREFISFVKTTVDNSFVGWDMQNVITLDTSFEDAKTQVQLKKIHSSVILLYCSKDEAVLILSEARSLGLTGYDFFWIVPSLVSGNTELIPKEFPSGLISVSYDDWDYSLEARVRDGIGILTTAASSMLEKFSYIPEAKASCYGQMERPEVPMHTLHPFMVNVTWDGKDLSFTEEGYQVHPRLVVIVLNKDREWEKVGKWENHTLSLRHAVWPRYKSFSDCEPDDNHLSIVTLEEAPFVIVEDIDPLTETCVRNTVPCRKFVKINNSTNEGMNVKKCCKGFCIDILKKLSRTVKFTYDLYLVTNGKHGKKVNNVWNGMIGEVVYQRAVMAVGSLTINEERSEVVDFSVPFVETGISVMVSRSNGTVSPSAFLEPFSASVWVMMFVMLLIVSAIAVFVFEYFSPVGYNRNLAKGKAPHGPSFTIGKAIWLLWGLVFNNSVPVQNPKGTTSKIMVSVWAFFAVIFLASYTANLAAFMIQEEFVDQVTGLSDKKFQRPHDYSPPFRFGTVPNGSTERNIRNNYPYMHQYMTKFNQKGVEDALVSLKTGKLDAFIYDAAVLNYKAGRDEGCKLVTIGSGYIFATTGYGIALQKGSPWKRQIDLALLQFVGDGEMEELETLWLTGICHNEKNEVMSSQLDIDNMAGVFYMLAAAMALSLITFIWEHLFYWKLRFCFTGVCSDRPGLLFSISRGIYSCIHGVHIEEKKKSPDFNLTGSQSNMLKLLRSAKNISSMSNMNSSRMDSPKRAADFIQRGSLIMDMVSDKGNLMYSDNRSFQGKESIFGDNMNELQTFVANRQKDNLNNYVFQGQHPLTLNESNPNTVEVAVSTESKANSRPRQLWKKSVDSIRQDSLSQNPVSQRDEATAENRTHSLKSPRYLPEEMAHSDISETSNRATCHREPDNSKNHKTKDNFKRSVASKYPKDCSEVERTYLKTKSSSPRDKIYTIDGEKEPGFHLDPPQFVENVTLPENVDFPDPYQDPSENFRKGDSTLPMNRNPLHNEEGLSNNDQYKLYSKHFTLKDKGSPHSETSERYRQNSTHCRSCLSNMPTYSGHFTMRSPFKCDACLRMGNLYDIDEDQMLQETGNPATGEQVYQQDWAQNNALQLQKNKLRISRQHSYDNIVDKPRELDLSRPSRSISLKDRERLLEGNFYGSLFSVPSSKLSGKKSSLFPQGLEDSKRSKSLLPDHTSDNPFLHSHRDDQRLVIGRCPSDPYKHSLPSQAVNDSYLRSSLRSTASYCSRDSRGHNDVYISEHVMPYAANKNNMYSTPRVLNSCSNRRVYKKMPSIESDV
Measure name: EC50

[[record]]
compound = "CC(=O)N1CCC2(CCNC2=O)CC1"
recorded_result = "< 1 nM"

[[record]]
compound = "O=C1NCCC12CCCCN2 (stereo not shown) [RG-602]"
recorded_result = "< 1 nM"

[[record]]
compound = "O=C1NCCC12CCCNC2 (stereo not shown) [RB-1, 2,7-diazaspiro[4.5]decan-1-one]"
recorded_result = "< 1 nM"

[[record]]
compound = "O=C1NCCC12CCNCC2"
recorded_result = "≥ 1 nM"


Report EC50 for each item below.
1. O=C1NCCC12CCCN2 (single isomer, unassigned) [RW-1, 1,7-diazaspiro[4.4]nonan-6-one]
2. CC(C)(C)OC(=O)N1CCCC2(CCNC2=O)C1 (single isomer, unassigned)
3. CC(C)C(=O)N1CCCC12CCNC2=O (stereo not shown)
4. CC(C)(C)OC(=O)N1CCCC12CCNC2=O (single isomer, unassigned) [RT-1]
5. CC(C)(C)OC(=O)N1CCCCC12CCNC2=O (stereo not shown)

## Result
1. ≥ 1 nM
2. ≥ 1 nM
3. < 1 nM
4. < 1 nM
5. < 1 nM

Given the compound CC(C)(C)OC(=O)N1CCCC12CCNC2=O (single isomer, unassigned) [RM-1] and test system NMDAR2A (Homo sapiens), the measured EC50 is < 1 nM

====

target: NMDAR2B (Homo sapiens, UniProt Q13224); construct: expressed in transfected cells; host or cells: HEK cells (membrane extract); experiment: [3H]MK-801 binding in NMDAR2B expressing HEK cell membranes; type: biochemical; settings: 50 μM glutamate, read-out: A: % maximal [3H]MK-801 binding relative to 1 mM glycine
Sequence (Q13224 27-1484, species assumed, other chains not shown): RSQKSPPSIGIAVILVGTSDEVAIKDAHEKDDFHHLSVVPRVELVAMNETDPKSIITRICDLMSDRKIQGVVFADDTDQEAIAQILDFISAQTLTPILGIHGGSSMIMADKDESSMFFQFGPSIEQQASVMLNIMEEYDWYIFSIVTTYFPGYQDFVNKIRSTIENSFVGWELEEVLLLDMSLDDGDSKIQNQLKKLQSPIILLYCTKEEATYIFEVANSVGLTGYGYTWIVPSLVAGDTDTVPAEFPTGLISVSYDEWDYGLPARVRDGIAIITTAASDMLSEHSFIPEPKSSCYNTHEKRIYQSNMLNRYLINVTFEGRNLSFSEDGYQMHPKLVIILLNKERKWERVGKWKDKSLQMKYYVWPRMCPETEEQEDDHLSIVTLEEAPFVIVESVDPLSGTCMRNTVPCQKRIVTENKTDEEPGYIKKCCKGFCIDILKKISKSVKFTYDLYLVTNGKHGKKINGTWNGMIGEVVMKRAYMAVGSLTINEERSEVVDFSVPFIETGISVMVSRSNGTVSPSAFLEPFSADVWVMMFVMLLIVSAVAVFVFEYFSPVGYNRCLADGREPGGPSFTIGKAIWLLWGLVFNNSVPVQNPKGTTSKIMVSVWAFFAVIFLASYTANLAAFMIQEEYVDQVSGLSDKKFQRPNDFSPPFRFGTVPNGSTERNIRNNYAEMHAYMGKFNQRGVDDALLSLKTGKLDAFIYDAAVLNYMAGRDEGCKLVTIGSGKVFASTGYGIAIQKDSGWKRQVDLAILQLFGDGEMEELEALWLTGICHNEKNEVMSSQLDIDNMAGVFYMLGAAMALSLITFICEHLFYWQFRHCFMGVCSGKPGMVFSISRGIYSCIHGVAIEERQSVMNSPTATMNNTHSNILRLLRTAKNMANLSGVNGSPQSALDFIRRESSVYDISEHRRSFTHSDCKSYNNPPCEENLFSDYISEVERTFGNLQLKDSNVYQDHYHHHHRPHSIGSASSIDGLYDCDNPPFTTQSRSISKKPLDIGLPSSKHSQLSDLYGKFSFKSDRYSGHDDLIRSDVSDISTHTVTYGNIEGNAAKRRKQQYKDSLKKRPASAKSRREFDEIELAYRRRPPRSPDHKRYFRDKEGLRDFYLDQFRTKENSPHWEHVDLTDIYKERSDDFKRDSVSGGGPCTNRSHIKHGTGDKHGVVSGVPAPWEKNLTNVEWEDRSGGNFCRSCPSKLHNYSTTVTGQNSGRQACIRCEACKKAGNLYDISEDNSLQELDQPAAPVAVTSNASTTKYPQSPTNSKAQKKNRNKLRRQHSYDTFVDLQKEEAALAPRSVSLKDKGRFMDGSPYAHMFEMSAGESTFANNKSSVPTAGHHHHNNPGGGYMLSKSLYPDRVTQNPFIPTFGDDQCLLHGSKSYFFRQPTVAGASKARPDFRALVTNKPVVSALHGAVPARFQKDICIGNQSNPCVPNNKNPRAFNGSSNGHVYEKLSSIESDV
Measure name: Emax

// below: answered molecules
[[record]]
molecule = "CC(C)C(=O)N1CCC2(CCNC2=O)CC1"
recorded_result = "< 100%"

[[record]]
molecule = "CC(C)(C)OC(=O)N1CCC2(CCNC2=O)CC1"
recorded_result = "0%"

[[record]]
molecule = "O=C1NCCC12CCCNC2 (stereo not drawn) [RB-1, 2,7-diazaspiro[4.5]decan-1-one]"
recorded_result = "> 100%"

[[record]]
molecule = "CC(C)(C)OC(=O)N1CCCC12CCNC2=O (single isomer, unassigned)"
recorded_result = "< 100%"

[[record]]
molecule = "O=C1NCCC12CCCN2 (stereo not drawn) [RX-1, 1,7-diazaspiro[4.4]nonan-6-one]"
recorded_result = "0%"


Please look at the items below and tell me Emax for each one, in order.
1. CC(=O)N1CCC2(CCNC2=O)CC1
2. O=C1NCCC12CCCCN2 (stereo not drawn)
3. CC(C)(C)OC(=O)N1CCCC2(CCNC2=O)C1 (single isomer, unassigned)
4. CC(C)C(=O)N1CCCCC12CCNC2=O (stereo not drawn)
5. CC(C)C(=O)N1CCCC12CCNC2=O (stereo not drawn)
6. O=C1NCCC12CCCN2 (single isomer, unassigned) [RW-1, 1,7-diazaspiro[4.4]nonan-6-one]
7. O=C1NCCC12CCNCC2

## Result
1. > 100%
2. < 100%
3. < 100%
4. 0%
5. > 100%
6. < 100%
7. < 100%

====

experiment: IV pharmacokinetics; assay type: in vivo; settings: Sprague Dawley, rat, in vivo, iv, 2 mg/kg, Sprague Dawley rats, normal saline (first four compounds: 5% NMP, 5% Solutol HS, 90% normal saline), read-out: C0
t means recorded C0 is 3000 ng/mL or above; f means it is below 3000 ng/mL.

// known answers, use as guide
[[record]]
compound = "CC(C)(C)OC(=O)N1CCCCC12CCNC2=O (centres unmarked)"
qualitative_label = "t"

[[record]]
compound = "CC(C)(C)OC(=O)N1CCCC12CCNC2=O (single isomer, unassigned)"
qualitative_label = "f"


## Task Decide: C0 of O=C1NCCC12CCNCC2 >= 3000 ng/mL?
## Result t

## Task Kindly determine if C0 recorded for O=C1NCCC12CCCNC2 (centres unmarked) [RB-1, 2,7-diazaspiro[4.5]decan-1-one] is above or exactly 3000 ng/mL.
## Result f

## Task Check if C0 >= 3000 ng/mL (inclusive). Item: CC(C)C(=O)N1CCC2(CCNC2=O)CC1
## Result t

## Task Hi, just wondering whether CC(=O)N1CCC2(CCNC2=O)CC1 shows C0 of 3000 ng/mL or higher.
## Result t

## Task Does C0 meet or surpass 3000 ng/mL for O=C1NCCC12CCCCN2 (centres unmarked) ?
## Result f

====

assay: IV pharmacokinetics; format: in vivo; details: Sprague Dawley rats, intravenous 2 mg/kg
Assignment: determine reported Vss for the given compounds.
Answers are plain numbers, in L/kg.

[[record]]
compound = "CC(C)(C)OC(=O)N1CCCC2(CCNC2=O)C1 (single isomer, unassigned) [RA-1]"
recorded_result = 1.69


Please give Vss for each item listed below.
1. CC(C)(C)OC(=O)N1CCCC2(CCNC2=O)C1 (single isomer, unassigned) [RE-1]
2. CC(C)(C)OC(=O)N1CCCCC12CCNC2=O (stereo not shown)

## Result
1. 4.12
2. 0.91

Please fill in: Vss reported for O=C1NCCC12CCCNC2 (stereo not shown) [RC-1, 2,7-diazaspiro[4.5]decan-1-one] = 1.84

====

Exercise: for every item that follows, state its recorded Cmax.
test: oral pharmacokinetics (plasma, brain, CSF); type: in vivo; conditions: Sprague Dawley rats, per os 10 mg/kg, plasma
Numbers only, in ng/mL.

As a guide, the following entries are already answered.
[[record]]
compound = "CC(C)(C)OC(=O)N1CCCC2(CCNC2=O)C1 (single isomer, unassigned)"
recorded_result = 592

[[record]]
compound = "CC(C)(C)OC(=O)N1CCCCC12CCNC2=O (stereo not shown) [RG-606]"
recorded_result = 2812

[[record]]
compound = "CC(C)(C)OC(=O)N1CCCCC12CCNC2=O (stereo not shown) [RG-605]"
recorded_result = 6478


Okay, next one:
Cmax recorded for this compound, O=C1NCCC12CCCNC2 (stereo not shown) [RC-1, 2,7-diazaspiro[4.5]decan-1-one] , is 990.2

====

assay: oral pharmacokinetics (plasma, brain, CSF); type: in vivo; details: Sprague Dawley rats, per os 10 mg/kg
Measure name: % F (%)
Answers are plain numbers, in %.

Example compounds with recorded % F:
[[record]]
compound = "CC(C)(C)OC(=O)N1CCCC2(CCNC2=O)C1 (single isomer, unassigned)"
measure_name = "% F"
recorded_result = 28

[[record]]
compound = "CC(C)(C)OC(=O)N1CCCCC12CCNC2=O (stereo not shown) [RG-605]"
measure_name = "% F"
recorded_result = 81

[[record]]
compound = "CC(C)(C)OC(=O)N1CCCCC12CCNC2=O (stereo not shown) [RG-606]"
measure_name = "% F"
recorded_result = 48


As a next step, examine the compound that follows.
The measured % F associated with O=C1NCCC12CCCNC2 (stereo not shown) [RC-1, 2,7-diazaspiro[4.5]decan-1-one] reads 49

====

assay: oral pharmacokinetics (plasma, brain, CSF); assay type: in vivo; details: Sprague Dawley rats, per os 10 mg/kg, brain
Measure name: Brain Cmax (ng/mL)
Numbers only, in ng/mL.

Previously resolved entries follow.
[[record]]
compound = "CC(C)C(=O)N1CCCC12CCNC2=O (centres unmarked) [RZ-405]"
uom = "ng/mL"
recorded_result = 2209

[[record]]
compound = "O=C1NCCC12CCCNC2 (centres unmarked) [RB-1, 2,7-diazaspiro[4.5]decan-1-one]"
uom = "ng/mL"
recorded_result = 40.2

[[record]]
compound = "CC(C)(C)OC(=O)N1CCCCC12CCNC2=O (centres unmarked) [RG-606]"
uom = "ng/mL"
recorded_result = 612

[[record]]
compound = "CC(C)(C)OC(=O)N1CCCC12CCNC2=O (single isomer, unassigned) [RM-1]"
uom = "ng/mL"
recorded_result = 2763

[[record]]
compound = "CC(C)(C)OC(=O)N1CCCC2(CCNC2=O)C1 (single isomer, unassigned) [RE-1]"
uom = "ng/mL"
recorded_result = 22

[[record]]
compound = "CC(C)(C)OC(=O)N1CCCCC12CCNC2=O (centres unmarked) [RG-605]"
uom = "ng/mL"
recorded_result = 733

[[record]]
compound = "O=C1NCCC12CCCNC2 (centres unmarked) [RC-1, 2,7-diazaspiro[4.5]decan-1-one]"
uom = "ng/mL"
recorded_result = 27.6

[[record]]
compound = "CC(C)C(=O)N1CCC2(CCNC2=O)CC1 [RG-623]"
uom = "ng/mL"
recorded_result = 4317

[[record]]
compound = "CC(C)(C)OC(=O)N1CCCC2(CCNC2=O)C1 (single isomer, unassigned) [RA-1]"
uom = "ng/mL"
recorded_result = 203.6

[[record]]
compound = "O=C1NCCC12CCCCN2 (centres unmarked) [RG-601]"
uom = "ng/mL"
recorded_result = 1447


We next turn to a different compound, shown below.
Per the record, CC(=O)N1CCC2(CCNC2=O)CC1 [RG-621] has Brain Cmax of 1977.29
